# System Under Test: EGFR L858R (BaF3-L858R cells) (Homo sapiens, UniProt P00533, L858R)
# Construct: host or cells: BaF3
# Test: Cell degradation of EGFR, HTRF assay, BaF3-L858R cells
# Format: cell-based
# Experimental Parameters: 16 h treatment, maximum percentage of degradation
Value Type: Dmax (%)

[[record]]
compound = "Cc1cc2cc(n1)-c1cnn(CCO)c1OC[C@H]1CCC(C1)CN1/C(=N/C2=O)Nc2ccc(N3CCC(N4CCC(Nc5cc(F)c([C@H]6CCC(=O)NC6=O)c(F)c5)CC4)CC3)cc21"
observed_measurement = 71.9

[[record]]
compound = "Cc1cc2cc(n1)-c1cnn(C)c1OC[C@H]1CCC(C1)CN1/C(=N/C2=O)Nc2ccc(N3CCC(N4CCC(Nc5cc(F)c([C@H]6CCC(=O)NC6=O)c(F)c5)CC4)CC3)cc21 (single isomer, unassigned)"
observed_measurement = 85.4

[[record]]
compound = "Cc1cc2cc(n1)-c1cnn(C)c1OC[C@H]1CCC(C1)CN1/C(=N/C2=O)Nc2ccc(N3CC4(C3)CN(C3CCN(c5cc(F)c([C@H]6CCC(=O)NC6=O)c(F)c5)CC3)C4)cc21"
observed_measurement = 78

[[record]]
compound = "Cc1cc2cc(n1)-c1cnn(C)c1OC[C@H]1CC[C@H](C1)CN1/C(=N/C2=O)Nc2ccc(N3CCN(CCc4c(C)cc(C5CCC(=O)NC5=O)nc4C)CC3)cc21 (some centres unmarked)"
observed_measurement = 99.4

[[record]]
compound = "Cc1cc2cc(n1)-c1c(C)nn(C)c1OC[C@H]1CCC(C1)CN1/C(=N/C2=O)Nc2ccc(N3CCN(C4CCN(c5cc(F)c([C@H]6CCC(=O)NC6=O)c(F)c5)CC4)[C@@H](C)C3)cc21"
observed_measurement = 89.1


* * *

# System Under Test: p-EGFR L858R (BaF3-L858R cells) (Homo sapiens, UniProt P00533, L858R)
# Construct: host or cells: BaF3
# Test: Cell p-EGFR inhibition assay, HTRF, BaF3-L858R cells
# Format: cell-based
# Experimental Parameters: 16 h treatment, maximum percentage of pEGFR inhibition
Value Type: Imax (%)

[[record]]
molecule = "Cc1cc2cc(n1)-c1c(C)nn(C)c1OC[C@H]1CC[C@H](C1)CN1/C(=N/C2=O)Nc2ccc(N3CCN(CC4CCN(c5cc(F)c([C@H]6CCC(=O)NC6=O)c(F)c5)CC4)CC3)cc21"
value_type = "Imax (%)"
units_label = "%"
observed_measurement = 100.38

[[record]]
molecule = "Cc1cc2cc(n1)-c1c(C)nn(C)c1OC[C@H]1CC[C@H](C1)CN1/C(=N/C2=O)Nc2ccc(N3CCN(CC4CN(c5cc(F)c([C@H]6CCC(=O)NC6=O)c(F)c5)C4)[C@H](C(F)F)C3)cc21"
value_type = "Imax (%)"
units_label = "%"
observed_measurement = 92.5

[[record]]
molecule = "Cc1cc2cc(n1)-c1cnn(C)c1OC[C@H]1CCC(C1)CN1/C(=N/C2=O)Nc2ccc(N3CCN(C4CCN(c5ccc(NC6CCC(=O)NC6=O)cc5C)CC4)CC3)cc21 (some centres unmarked)"
value_type = "Imax (%)"
units_label = "%"
observed_measurement = 95.3

[[record]]
molecule = "Cc1cc2cc(n1)-c1cnn(C)c1OC[C@H]1CCC(C1)CN1/C(=N/C2=O)Nc2ccc(N3CCN([C@@H]4CCN(c5ccc(OC6CCC(=O)NC6=O)cc5F)C[C@@H]4F)CC3)cc21 (some centres unmarked)"
value_type = "Imax (%)"
units_label = "%"
observed_measurement = 97.7

[[record]]
molecule = "Cc1cc2cc(n1)-c1c(C)nn(C)c1OC[C@H]1CC[C@H](C1)CN1/C(=N/C2=O)Nc2ccc(N3CCC(N4CCC(Nc5cc(F)c([C@H]6CCC(=O)NC6=O)c(F)c5)CC4)CC3)cc21 (single isomer, unassigned)"
value_type = "Imax (%)"
units_label = "%"
observed_measurement = 88.33

